test system: HCT-116 colon; assay: NCI-60 one-dose screen, 48 h; settings: 10 µM unless noted
This is part of a sample that, as a whole, favours compounds with a hit. Of some 83,000 tested, about 20% had one in any assay. Active and inactive are the calls of the source. Rule for the calls: active = growth percent below 10; inactive = the rest.
Allowed answers: yes (1) for active, no (0) for inactive

Example results:
>>> print(df.to_string())
                                   compound    test_target  label_value
0  CCCC(=O)NC(c1ccc(N(CC)CC)cc1)c1cc(C)c2cccnc2c1O (stereo not given)  HCT-116 colon       no (0)
1  COc1cccc(COc2ccc(/C=C3/C(=O)Nc4cc(Cl)ccc43)cc2)c1  HCT-116 colon       no (0)
2  COc1ccc(/C=N/NC(=O)c2[nH]c3ccc(Br)cc3c2-c2ccccc2)o1  HCT-116 colon      yes (1)
3  Cc1cc2nc3c4cc(Cl)ccc4n(CC(=O)NCCN(C)C)c3nc2cc1C  HCT-116 colon      yes (1)

API: the following record is the query input.
What call does the record list for `COc1ccc(-c2nn3c(-c4ccccc4F)nnc3s2)cc1` ?
no (0)
